Data origin, for the record: ChEMBL document CHEMBL5055671

Below, each entry is listed with its recorded inhibition.
# Tested on: GTPase KRas (Homo sapiens), P01116 [G12V]
# test: Inhibition of alexa fluor 647-labeled kinase tracer 314 binding to biotinylated-KRAS G12V mutant (unknown origin) at 100 uM measured after 60 mins by HTRF competition binding assay
Kindly answer with a numeric value in %, unit omitted.

> print(dat)
                                chem.smiles                               target.desc  value.observed
1  CC[C@H](C)[C@@H]1NC(=O)[C@@H]2CCCN2C(=O)[C@H](C)NC(=O)CCCCn2nncc2COC[C@@H](C(=O)N[C@@H](CC(C)C)C(N)=O)NC1=O  GTPase KRas (Homo sapiens), P01116 [G12V]              30
2  C=C1/C=C/COC[C@@H](C(=O)N[C@@H](CC(C)C)C(N)=O)NC(=O)[C@H]([C@@H](C)CC)NC(=O)[C@@H]2CCCN2C(=O)CNC(=O)C1  GTPase KRas (Homo sapiens), P01116 [G12V]              46
3  CC[C@H](C)[C@@H]1NC(=O)[C@@H]2CCCN2C(=O)[C@H](Cc2ccc(O)cc2)NC(=O)CCCCn2cc(nn2)CSC[C@@H](C(=O)N[C@@H](CC(C)C)C(N)=O)NC1=O  GTPase KRas (Homo sapiens), P01116 [G12V]               0
4  CC[C@H](C)[C@@H]1NC(=O)[C@@H]2CCCN2C(=O)[C@H](Cc2ccccc2)NC(=O)CCCCn2nncc2COC[C@@H](C(=O)N[C@@H](CC(C)C)C(N)=O)NC1=O  GTPase KRas (Homo sapiens), P01116 [G12V]              38
5  CC[C@H](C)[C@@H]1NC(=O)[C@@H]2CCCN2C(=O)[C@H](C)NC(=O)CCC/C=C/COC[C@@H](C(=O)N[C@@H](CC(C)C)C(N)=O)NC1=O  GTPase KRas (Homo sapiens), P01116 [G12V]               5

For the compound shown here, `C=C1/C=C/CCCC(=O)N[C@@H](C)C(=O)N2CCC[C@H]2C(=O)N[C@@H]([C@@H](C)CC)C(=O)N[C@H](C(=O)N[C@@H](CC(C)C)C(N)=O)CSC1` , give the reported inhibition. 28

For the compound shown here, `C=C1/C=C/COC[C@@H](C(=O)N[C@@H](CC(C)C)C(N)=O)NC(=O)[C@H]([C@@H](C)CC)NC(=O)[C@@H]2CCCN2C(=O)CNC(=O)CC1` , give the reported inhibition. 21

For the compound shown here, `CC[C@H](C)[C@@H]1NC(=O)[C@@H]2CCCN2C(=O)CNC(=O)CCCCn2nncc2COC[C@@H](C(=O)N[C@@H](CC(C)C)C(N)=O)NC1=O` , give the reported inhibition. 48

For the compound shown here, `CC[C@H](C)[C@@H]1NC(=O)[C@@H]2CCCN2C(=O)[C@H](C)NC(=O)c2ccccc2/C=C/COC[C@@H](C(=O)N[C@@H](CC(C)C)C(N)=O)NC1=O` , give the reported inhibition. 25

For the compound shown here, `CC[C@H](C)[C@@H]1NC(=O)[C@@H]2CCCN2C(=O)CNC(=O)CCCC#CC#CCOC[C@@H](C(=O)N[C@@H](CC(C)C)C(N)=O)NC1=O` , give the reported inhibition. 0

For the compound shown here, `CC[C@H](C)[C@@H]1NC(=O)[C@@H]2CCCN2C(=O)[C@H](C)NC(=O)CCCC#CC#CCOC[C@@H](C(=O)N[C@@H](CC(C)C)C(N)=O)NC1=O` , give the reported inhibition. 0

For the compound shown here, `CC[C@H](C)[C@@H]1NC(=O)[C@@H]2CCCN2C(=O)[C@H](Cc2ccc(O)cc2)NC(=O)CCc2cnnn2CC[C@@H](C(=O)N[C@@H](CC(C)C)C(N)=O)NC1=O` , give the reported inhibition. 44
